Tested on: c-Src;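 also: 11-residue human phosphosite peptides and single-mutation variants displayed on the E. coli surface, counted by deep sequencing, each peptide's frequency after selection divided by its frequency in the unselected input library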;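 also: frequency after pTyr selection over input frequency; kinase dosed for 20-30% of maximal phosphorylation in three min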
Procedure text: phosphorylation enrichment, bacterial display (enrichment ratio); higher = better substrate or ligand; peptides without Tyr show the background
Recorded phosphorylation enrichment values for a group of sequences are listed next.

{"Residues": "VPVPGYTKLPE [SPRR3_Y146]", "phosphorylation enrichment": 0.419}
{"Residues": "LTFHMYADPNI [SOS1_Y618_F623I_YF]", "phosphorylation enrichment": 0.564}
{"Residues": "RDSQIYAVDYE [MRPS34_Y34_L33I]", "phosphorylation enrichment": 4.24}
{"Residues": "RISRKYKKVRF [F8_Y442_G439S]", "phosphorylation enrichment": 0.749}
{"Residues": "NQELIYEGRRL [TBK1_Y354]", "phosphorylation enrichment": 7.87}
{"Residues": "ETDSEYVKLSK [C7orf57_Y70_A74S]", "phosphorylation enrichment": 0.451}
{"Residues": "FEELVYETVRV [FSHB_Y76_K72E]", "phosphorylation enrichment": 5.16}
{"Residues": "APGDAYGDAGY [SYP_Y250]", "phosphorylation enrichment": 0.405}

Noted phosphorylation enrichment for SLDLSYFHTSS [EMD_Y181_P183H_YF] , tested on c-Src: 0.466

Noted phosphorylation enrichment for LIPIKYKAMKK [MYD88_Y257] , tested on c-Src: 0.302

Noted phosphorylation enrichment for GNKENYGLPQP [BUB1_Y538] , tested on c-Src: 0.392

Noted phosphorylation enrichment for FAASSYSFSDL [EMD_Y59_S54F] , tested on c-Src: 0.639

Noted phosphorylation enrichment for ALAHKYHGGGG [HBB_Y146] , tested on c-Src: 0.383

Noted phosphorylation enrichment for LEITWYPFDME [RIPOR2_Y316_V320M] , tested on c-Src: 0.554

Noted phosphorylation enrichment for PSSNLYFRWLT [CNGA3_Y168_YF] , tested on c-Src: 1.11

Noted phosphorylation enrichment for QLCVSYPGGYT [PROS1_Y259_N258S] , tested on c-Src: 0.4

Noted phosphorylation enrichment for LLVVVYKFRCF [PSEN1_Y154_L153V_YF] , tested on c-Src: 0.455

Noted phosphorylation enrichment for RASSSYRETPS [SORBS1_Y79] , tested on c-Src: 0.775

Noted phosphorylation enrichment for ALTDNYMFLVI [HAGH_Y61_YF] , tested on c-Src: 0.733

Noted phosphorylation enrichment for LEISPYMLSGP [LRRK2_Y1718_R1723P] , tested on c-Src: 3.58

Noted phosphorylation enrichment for EQFELHCEMGS [CBL_Y371_Y371H_YF] , tested on c-Src: 0.528

Noted phosphorylation enrichment for PHRSIYFSSPK [MPG_Y75_Y71H] , tested on c-Src: 0.786

Noted phosphorylation enrichment for CPASVYTKRCS [CPT2_Y508_R503C] , tested on c-Src: 0.431

Noted phosphorylation enrichment for GIVEDYRPPVY [ACVRL1_Y421_F425V] , tested on c-Src: 0.437

Noted phosphorylation enrichment for SRVNKYSTAFG [GJB3_Y16_G12R] , tested on c-Src: 0.383

Noted phosphorylation enrichment for SLNEGYARDFD [FBP1_Y216] , tested on c-Src: 0.44
